System: Trypanosoma brucei brucei
Experiment: Inhibition of Trypanosoma brucei brucei recombinant trypanothione synthetase using GSH/spermididine as substrate assessed as residual activity by measuring phosphate release from ATP at 30 uM after 15 mins by Biomol Green reagent based assay relative to control
QUANTITY_KIND: Activity (%)

SMILES | UNIT_LABEL | Activity
CCOC(=O)c1csc(NC(=O)c2csc(NC(=O)c3csc(C)n3)n2)n1 | % | 112

[A] CC(C)(C)OC(=O)Nc1nc(C(=O)Nc2nc(C(=O)Nc3nc(C(=O)O)cs3)cs2)cs1
[B] CNCCNC(=O)CN1C(=O)Cc2c([nH]c3ccc(Br)cc23)-c2ccc(Cl)cc21
Qu. Lower Activity: A or B ? Write down the label of the entry you select.
Ans. B
(B: 49.4%, A: 112%)
